Examples of compounds with documented glass transition temperature follow.
quantity.name: glass transition temperature (°C)

* *CC(O)COc1ccc(C(C)(C)c2ccc(OCC(O)COc3cccc(NC(=O)c4cccc(C(=O)Nc5cccc(O*)c5)c4)c3)cc2)cc1 (repeat unit) | 133.00
* *c1ccc(C2(c3ccc(-c4cc(-c5ccccc5)c5cc(C6(c7ccc8nc(*)cc(-c9ccccc9)c8c7)c7ccccc7-c7ccccc76)ccc5n4)cc3)c3ccccc3-c3ccccc32)cc1 (repeat unit) | 390.00
* *CC(OC=O)C(COC(=O)O*)OC=O (repeat unit) | 54.30
* *C(=O)c1ccc(C(=O)c2ccc3c(c2)C(=O)N(c2ccc(C(=O)c4ccc(C(=O)c5ccc(N6C(=O)c7ccc(*)cc7C6=O)cc5)cc4)cc2)C3=O)cc1 (repeat unit) | 260.00
* *CC(*)c1ccc(C)cc1 (repeat unit) | 101
* *CCCCNC(=O)c1ccc(C(=O)N*)c(Oc2ccccc2)c1 (repeat unit) | 125.00
* */C=C(/*)C(CCC)[Si](C)(C)c1ccccc1 (repeat unit) | 110.00
* *Oc1ccc(NC(=O)c2cc(C(=O)Nc3ccc(*)cc3)cc(C(F)(F)C(F)(F)C(F)(F)C(F)(F)C(F)(F)C(F)(F)C(F)(F)C(F)(F)F)c2)cc1 (repeat unit) | 230.00
* *CC(*)(C)C(=O)OCC1(CC)COC1 (repeat unit) | 105.00
* *CC(*)(C)C(=O)OC(C)C(C)(C)C (repeat unit) | 108.00
* *c1cccc(-c2nc3ccc(-c4ccc5nc(*)sc5c4)cc3s2)c1 (repeat unit) | 495.00
* *CCC(=O)Nc1ccc(Cc2ccc(NC(=O)CCN3C(=O)c4ccc(C(=O)c5ccc6c(c5)C(=O)N(*)C6=O)cc4C3=O)cc2)cc1 (repeat unit) | 221.00
* *C(=O)c1ccc2c(c1)C(=O)N(c1ccc(Cc3ccc(C(=O)c4ccc(N5C(=O)c6ccc(*)cc6C5=O)cc4)cc3)cc1)C2=O (repeat unit) | 307.00
* *O[Si](*)(C)CCCCC1COC(=O)O1 (repeat unit) | -23.4
* *Nc1ccc(C(c2ccc(NC(=O)c3cc(NC(=O)C45CC6CC(CC(C6)C4)C5)cc(C(*)=O)c3)cc2)(C(F)(F)F)C(F)(F)F)cc1 (repeat unit) | 365.00
* *c1ccc2c(c1)C(CCCCCCCC)(CCCCCCCC)c1cc(*)ccc1-2 (repeat unit) | 71.00
* *C(=O)Nc1ccc(Oc2ccc(NC(=O)c3ccc4c(c3)C(=O)N(c3ccc(Oc5ccc(N6C(=O)c7ccc(*)cc7C6=O)cc5)cc3)C4=O)cc2)cc1 (repeat unit) | 282.00
* *c1cccc(C(=O)Nc2cccc(S(=O)(=O)c3cccc(NC(=O)c4cccc(N5C(=O)c6ccc(-c7ccc8c(c7)C(=O)N(*)C8=O)cc6C5=O)c4)c3)c2)c1 (repeat unit) | 247.00
* *CC(COC)O* (repeat unit) [Poly(3-methoxypropylene oxide) ] | -62
* *CCNC(=O)c1cccc(O*)c1 (repeat unit) | 106.00
* */C=C/C1CC(*)C(C(=O)OCCCCCCCCCCCOc2ccc(-c3ccc(C#N)cc3)cc2)C1C(=O)OCCCCCCCCCCCOc1ccc(-c2ccc(C#N)cc2)cc1 (repeat unit) | 23.10
* *=Nc1ccc(Cc2ccc(NC(=*)CC)cc2)cc1 (repeat unit) | 130.00
* *OC(*)CCC (repeat unit) | -41.00
* *C(=O)c1ccc2c(c1)C(=O)N(c1ccc(-c3cc(C(C)(C)C)c(Oc4ccc(N5C(=O)c6ccc(*)cc6C5=O)cc4C(F)(F)F)c(C(C)(C)C)c3)cc1)C2=O (repeat unit) | 362.00
* *C(=O)Nc1cc(NC(=O)c2ccc3c(c2)C(=O)N(c2cc(-c4nc5ccccc5o4)cc(N4C(=O)c5ccc(*)cc5C4=O)c2)C3=O)cc(-c2nc3ccccc3[nH]2)c1 (repeat unit) | 371.00
* *Oc1cccc2ccc(Oc3ccc(NC(=O)c4ccc(Oc5ccc(C(C)(c6ccccc6)c6ccc(Oc7ccc(C(=O)Nc8ccc(*)cc8)cc7)cc6)cc5)cc4)cc3)cc12 (repeat unit) | 212.00
* *CCOC(=O)CCCCCCCCCCC(=O)OCCOC(=O)c1ccc(C(=O)O*)cc1 (repeat unit) | -8.00
* *Oc1ccc(CC(NC(=O)CCc2ccc(OC(=O)CCCC(*)=O)cc2)C(=O)OCc2ccccc2)cc1 (repeat unit) | 66.00
* *CC(O)CN(C)S(=O)(=O)c1cccc(S(=O)(=O)N(C)CC(O)COc2ccc(-c3ccc(O*)cc3)cc2)c1 (repeat unit) | 58.00
